biological target: KRAS WT (Homo sapiens, UniProt P01116+P62937); assay: Disruption of BRAF RBD interaction with Ras (FRET / MOA assay, with Cyclophilin A); assay type: biochemical; settings: KRAS WT; read-out: KRAS WT FRET data IC50
Sequence (P01116 1-169 isoform P01116-2 limits assumed, one chain of several): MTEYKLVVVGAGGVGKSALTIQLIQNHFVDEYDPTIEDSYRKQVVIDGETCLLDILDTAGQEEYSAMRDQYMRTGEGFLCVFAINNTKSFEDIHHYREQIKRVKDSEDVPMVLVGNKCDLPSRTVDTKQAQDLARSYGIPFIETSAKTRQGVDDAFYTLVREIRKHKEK
result type: IC50

CCn1c(-c2cccnc2[C@H](C)OC)c2c3cc(ccc31)-c1cc(O)cc(c1)C[C@H](NS(=O)(=O)c1cn(C)c(C)n1)C(=O)N1CCC[C@H](N1)C(=O)OCC(C)(C)C2 [Example A197] = > 10000 nM

// CCn1c(-c2cccnc2[C@H](C)OC)c2c3cc(ccc31)-c1cc(O)cc(c1)C[C@H](NC(=O)C1CCCC1C(F)F)C(=O)N1CCC[C@H](N1)C(=O)OCC(C)(C)C2 (some centres unmarked) [Example A254] : IC50 value = 100 to 1000 nM

GET /value?item= CCn1c(-c2cccnc2[C@H](C)OC)c2c3cc(ccc31)-c1cc(O)cc(c1)C[C@H](NC(=O)[C@H](C(C)C)N(C)C(=O)C1CNC1)C(=O)N1CCC[C@H](N1)C(=O)OCC(C)(C)C2 [Example A125] &field=IC50 returns 10 to 100 nM

The reported value for CCn1c(-c2cccnc2[C@H](C)OC)c2c3cc(ccc31)-c1cc(O)cc(c1)C[C@H](NC(=O)[C@H](C(C)C)N(C)C(=O)[C@@H]1CC1(C)C)C(=O)N1CCC[C@H](N1)C(=O)OCC(C)(C)C2 [Example A157] in terms of IC50 is 10 to 100 nM

// IC50 lookup, molecule = CCn1c(-c2cccnc2COC)c2c3cc(ccc31)-c1cc(O)cc(c1)C[C@H](NC(=O)[C@H](C(C)C)N(C)C(=O)[C@H]1CCN(C(=O)C#CC(C)(C)N(C)C)C1)C(=O)N1CCC[C@H](N1)C(=O)OCC(C)(C)C2 [Example A162] , result: 1000 to 10000 nM

Summary for this molecule, CCn1c(-c2cccnc2[C@H](C)OC)c2c3cc(ccc31)-c1csc(n1)C[C@H](NC(=O)[C@H](C(C)C)N(C)C(=O)N1CCN(C(=O)C3COC3)CC1)C(=O)N1CCC[C@H](N1)C(=O)OCC(C)(C)C2 (atropisomer, axis not shown) [Example A606] : IC50 is 10 to 100 nM

// sample C=CC(=O)N1CC[C@H](C(=O)N(C)[C@H](C(=O)N[C@H]2Cc3cc(O)cc(c3)-c3ccc4c(c3)c(c(-c3ccc(CN(C)C)cc3)n4CC)CC(C)(C)COC(=O)[C@@H]3CCCN(N3)C2=O)C(C)C)C1 [Example A003] , its IC50 was > 10000 nM

* * *

In this section we review reported pIC50 values for a set of compounds.
molecular target: KRAS G13C (Homo sapiens, UniProt P01116+P62937, G13C); assay: Ras-Raf disruption / FRET / MOA assay (BRAF RBD); type: biochemical; conditions: KRAS G13C FRET data IC50, Ras-Raf disruption, with Cyclophilin A
Sequence (P01116 1-169 isoform P01116-2 G13C limits assumed, one chain of several): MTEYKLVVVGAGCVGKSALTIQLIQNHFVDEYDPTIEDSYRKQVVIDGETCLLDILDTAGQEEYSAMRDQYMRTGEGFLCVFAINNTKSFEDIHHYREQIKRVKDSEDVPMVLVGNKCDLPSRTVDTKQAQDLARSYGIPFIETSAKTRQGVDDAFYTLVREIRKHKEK
pIC50: −log10 of the molar value.

Some compounds with recorded pIC50:
CCn1c(-c2cccnc2[C@H](C)OC)c2c3cc(ccc31)-c1cc(O)cc(c1)C[C@H](NC(=O)[C@H](C(C)C)N(C)C(=O)CN(C)C(=O)[C@@H]1N[C@@H]1C1CCC1)C(=O)N1CCC[C@H](N1)C(=O)OCC(C)(C)C2 = 7.00 to 8.00
CCn1c(-c2cccnc2[C@H](C)OC)c2c3cc(ccc31)-c1cc(O)cc(c1)C[C@H](NC(=O)[C@H](C(C)C)N(C)C(=O)CN(C)C(=O)[C@H]1CN1CCOC)C(=O)N1CCC[C@H](N1)C(=O)OCC(C)(C)C2 (some centres unmarked) = 7.00 to 8.00
CCn1c(-c2cccnc2[C@H](C)OC)c2c3cc(ccc31)-c1cc(O)cc(c1)C[C@H](NC(=O)[C@H](C(C)C)N(C)C(=O)C13CCC(CC1)N3C(=O)[C@H]1CN1)C(=O)N1CCC[C@H](N1)C(=O)OCC(C)(C)C2 = 6.00 to 7.00
CCn1c(-c2cccnc2[C@H](C)OC)c2c3cc(ccc31)-c1cc(O)cc(c1)C[C@H](NC(=O)[C@H](C(C)C)N(C)C(=O)[C@H]1CC[C@@H](C)N1C(=O)[C@H]1CN1)C(=O)N1CCC[C@H](N1)C(=O)OCC(C)(C)C2 = 6.00 to 7.00
CCn1c(-c2cccnc2[C@H](C)OC)c2c3cc(ccc31)-c1cc(O)cc(c1)C[C@H](NC(=O)[C@H](C1CCCC1)N(C)C(=O)CN(C)C(=O)[C@@H]1N[C@@H]1C1(C#N)CC1)C(=O)N1CCC[C@H](N1)C(=O)OCC(C)(C)C2 (single isomer, unassigned) = 7.00 to 8.00
CCn1c(-c2cccnc2[C@H](C)OC)c2c3cc(ccc31)-c1cc(O)cc(c1)C[C@H](NC(=O)[C@H](C(C)C)N(C)C(=O)CN(C)C(=O)[C@@H]1N[C@H]1COC)C(=O)N1CCC[C@H](N1)C(=O)OCC(C)(C)C2 = > 8.00

The compound CC[C@@H]1N[C@@H]1C(=O)N(C)CC(=O)N(C)[C@H](C(=O)N[C@H]1Cc2cc(O)cc(c2)-c2ccc3c(c2)c(c(-c2cccnc2[C@H](C)OC)n3CC)CC(C)(C)COC(=O)[C@@H]2CCCN(N2)C1=O)C(C)C on KRAS G13C (Homo sapiens, UniProt P01116+P62937, G13C): pIC50 was 7.00 to 8.00

For the compound CCn1c(-c2cnccc2COC)c2c3cc(ccc31)-c1cc(O)cc(c1)C[C@H](NC(=O)[C@H](C(C)C)N(C)C(=O)CN(C)C(=O)[C@@H]1N[C@@H]1C(=O)OC)C(=O)N1CCC[C@H](N1)C(=O)OCC(C)(C)C2 , the measured pIC50 on KRAS G13C (Homo sapiens, UniProt P01116+P62937, G13C) was 7.00 to 8.00

* * *

IC50 values, listed per item
target: KRAS G12D (Homo sapiens, UniProt P01116+P62937, G12D); test: Ras-Raf disruption / FRET / MOA assay (BRAF RBD); type: biochemical; conditions: Ras-Raf disruption, with Cyclophilin A; read-out: KRAS G12D FRET data IC50
Sequence (P01116 1-169 isoform P01116-2 G12D limits assumed): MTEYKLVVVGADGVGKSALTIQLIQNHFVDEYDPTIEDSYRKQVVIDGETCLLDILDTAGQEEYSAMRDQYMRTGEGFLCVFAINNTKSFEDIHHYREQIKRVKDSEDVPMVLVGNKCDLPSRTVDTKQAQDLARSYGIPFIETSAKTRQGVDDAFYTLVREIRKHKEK
Sequence (P62937 whole entry): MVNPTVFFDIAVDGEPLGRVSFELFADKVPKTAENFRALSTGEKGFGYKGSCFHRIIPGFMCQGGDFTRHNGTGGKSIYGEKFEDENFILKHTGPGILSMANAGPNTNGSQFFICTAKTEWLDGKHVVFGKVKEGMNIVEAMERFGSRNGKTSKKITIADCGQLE

Study these solved cases before continuing.
CCn1c(-c2cccnc2[C@H](C)OC)c2c3cc(ccc31)-c1cc(cc(C(F)F)c1)C[C@H](NC(=O)[C@H](C1CCCC1)N1CC[C@]3(CCN(C(=O)[C@@H]4N[C@@H]4C4CC4)C3)C1)C(=O)N1CCC[C@H](N1)C(=O)OCC(C)(C)C2 = 1000 to 10000 nM
CCn1c(-c2cccnc2[C@H](C)OC)c2c3cc(ccc31)-c1cc(O)cc(c1)C[C@H](NC(=O)[C@H](C(C)C)N(C)C(=O)c1ncc(NC(=O)[C@@H]3CN3)n1C)C(=O)N1CCC[C@H](N1)C(=O)OCC(C)(C)C2 = 100 to 1000 nM
CCn1c(-c2cccnc2[C@H](C)OC)c2c3cc(ccc31)-c1csc(n1)C[C@H](NC(=O)[C@H](C(C)C)N(C)C(=O)N1CCC(CN(C)C(=O)[C@H]3CN3)CC1)C(=O)N1CCC[C@H](N1)C(=O)OCC(C)(C)C2 (atropisomer, axis not shown) = 100 to 1000 nM

Looking up CCn1c(-c2cccnc2[C@H](C)OC)c2c3cc(ccc31)-c1cc(O)cc(c1)C[C@H](NC(=O)[C@H](C(C)C)N(C)C(=O)N1CCN(C(=O)[C@@H]3CN3)CC1=O)C(=O)N1CCC[C@H](N1)C(=O)OCC(C)(C)C2 (atropisomer, axis not shown) , I found its IC50 recorded as 1000 to 10000 nM

get_value(item= CCn1c(-c2cccnc2[C@H](C)OC)c2c3cc(ccc31)-c1csc(n1)C[C@H](NC(=O)[C@H](C(C)C)N(C)C(=O)N(C)C1CN(C(=O)[C@@H]3CN3)C1)C(=O)N1CCC[C@H](N1)C(=O)OCC(C)(C)C2 , readout=IC50) returns 1000 to 10000 nM

* * *

Target: KRAS G12S (Homo sapiens, UniProt P01116+P62937, G12S)
Sequence (P01116 1-169 isoform P01116-2 G12S limits assumed, one chain of several): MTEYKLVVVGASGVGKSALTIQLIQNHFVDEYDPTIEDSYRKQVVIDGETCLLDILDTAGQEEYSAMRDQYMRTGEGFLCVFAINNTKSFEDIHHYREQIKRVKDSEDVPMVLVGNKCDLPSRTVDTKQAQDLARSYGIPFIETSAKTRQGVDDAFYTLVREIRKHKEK
Assay: Ras-Raf disruption / FRET / MOA assay (BRAF RBD)
Assay type: biochemical
Settings: Ras-Raf disruption, with Cyclophilin A; read-out: KRAS G12S FRET data IC50
Text: Disruption of […] Ras-binding Domain (BRAF^RBD) Interaction with K-Ras by Compounds of the Invention (also Called a FRET Assay or an MOA Assay) Note—The following protocol describes a procedure for monitoring disruption of K-Ras G12C (GMP-PNP) binding to BRAF^RBD by a compound of the invention. This protocol may also be executed substituting other Ras proteins or nucleotides, such as K-Ras G12D and K-Ras G13D. […]
result type: IC50

Example entries and their recorded answers appear below.
CCn1c(-c2cnccc2COC)c2c3cc(ccc31)-c1cccc(c1)C[C@H](NC(=O)[C@H](C(C)C)N(C)C(=O)CCN=C=NCc1ccccc1C)C(=O)N1CCC[C@H](N1)C(=O)OCC(C)(C)C2 [82 A and B] = > 10 µM
CCn1c(-c2cccnc2[C@H](C)OC)c2c3cc(ccc31)-c1csc(n1)C[C@H](NC(=O)[C@H](C(C)C)N(C)C(=O)N1CCN(C(=O)[C@H]3CN3)[C@@H](C)C1)C(=O)N1CCC[C@H](N1)C(=O)OCC(C)(C)C2 [Example 297] = 0.1 to 1 µM
CCn1c(-c2cccnc2[C@H](C)OC)c2c3cc(ccc31)-c1cc(O)cc(c1)C[C@H](NC(=O)[C@H](C(C)C)N(C)C(=O)C1CCN(C(=O)[C@@H]3CN3)CC1)C(=O)N1CCC[C@H](N1)C(=O)OCC(C)(C)C2 [Example 89] = 0.01 to 0.1 µM

Kindly note the recorded IC50 for CCn1c(-c2cccnc2[C@H](C)OC)c2c3cc(ccc31)-c1cc(O)cc(c1)C[C@H](NC(=O)[C@H](C(C)C)N(C)C(=O)[C@@H]1CCCN(C(=O)[C@@H]3CN3)C1)C(=O)N1CCC[C@H](N1)C(=O)OCC(C)(C)C2 [Example 238] , which is 0.01 to 0.1 µM

For reference, reported IC50 for CCn1c(-c2cccnc2[C@H](C)OC)c2c3cc(ccc31)-c1csc(n1)C[C@H](NC(=O)[C@H](C(C)C)N(C)C(=O)N1CC[C@@H](N(C)C(=O)[C@@H]3CN3)C1)C(=O)N1CCC[C@H](N1)C(=O)OCC(C)(C)C2 (atropisomer, axis not shown) [Example 227] stands at 0.1 to 1 µM

Field IC50 (entry CCn1c(-c2cccnc2[C@H](C)OC)c2c3cc(ccc31)-c1cc(O)cc(c1)C[C@H](NC(=O)[C@H](C(C)C)N(C)C(=O)N1C[C@@H]3[C@H]1CCN3C(=O)[C@@H]1CN1)C(=O)N1CCC[C@H](N1)C(=O)OCC(C)(C)C2 (atropisomer, axis not shown) [Example 251] ) reads 0.1 to 1 µM
